Test system: Fibroblast
Experiment: Multiplex assay against human fibroblast
Type: toxicity, cell-based
Settings: 48 h, 1 µM, compound concentration 1 uM, replicate 1
MEASURED QUANTITY: Population Mitochondria Different-Phenotype (%)

| COMPOUND | RESULT UNIT | TEST RESULT |
| --- | --- | --- |
| Cc1ccc(OCC(O)C(C)NC(C)C)c2c1CCC2.Cl (stereo not given) | % | 1 |
| Cc1sc2c(c1C)C(c1ccc(Cl)cc1)=N[C@H](CC(=O)OC(C)(C)C)c1nnc(C)n1-2 | % | 2 |
| N[C@](CC1c2ccccc2Oc2ccccc21)(C(=O)O)[C@H]1C[C@@H]1C(=O)O | % | 2 |
| Cn1cc(C(=O)OCC2CCN(CCNS(C)(=O)=O)CC2)c2ccccc21 | % | 1 |
| COC(c1ccccc1)(c1ccccc1)[C@H](Oc1nc(C)cc(C)n1)C(=O)O [AMBRISENTAN] | % | 5 |

From: ChEMBL document CHEMBL5058577
